Tested on: antibodies in sera from SARS patients (sera 1a, 1b, 2, 6, 37, 62, London, SARS-yellow, SARS-green)
Type: binding, human
So basically: is Binding of serum SARS-green to looped/cyclic peptide (PEPSCAN-ELISA) under 0.3? Then yes. Not under? Then no.

# Residues, Group
records = [
    ("ASLPFGWLVIGVAFL", "yes"),
    ("KGFQFICNLLLLFVT", "no"),
    ("LLFVTIYSHLLLVAA", "yes"),
]

Dear reviewer, please state whether QFLYLYALIYFLQCI has Binding of serum SARS-green to looped/cyclic peptide (PEPSCAN-ELISA) strictly beneath 0.3.
yes

In the record for KSKNPLLYDANYFVC , is Binding of serum SARS-green to looped/cyclic peptide (PEPSCAN-ELISA) less than 0.3?
no
